Data credit: PubChem BioAssay (NCATS)

assayed target: Rap guanine nucleotide exchange factor 4 (Homo sapiens)
assay: Confirmatory qHTS for agonist of cAMP-regulated guanine nucleotide exchange factor 4 (EPAC2) (AID 1645884);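 further: nucleotide exchange releases bodipy-GDP from Rap1 and this lowers its fluorescence; nearly all actives have a fitted effect of over 65% in size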
reported conditions: EPAC2 GEF activity, Rap1B-BODIPY-GDP fluorescence; series mostly up to 154 µM
Results filed as inconclusive are left out. Activity calls are given as the source filed them. The call rests on the fitted dose curve; in most records, active means well fitted activation curve with a large enough effect; inconclusive means small, poorly fitted or top-dose-only effect; inactive means no such curve, though single readings can be large or run the other way.
readout type: activation

>>> result("CC(C)CNC(=O)c1c(-c2ccccc2)c(-c2ccccc2)nn(C)c1=O")
"inactive"
>>> result("C(=N\\N1CCN(C(c2ccccc2)c2ccccc2)CC1)/c1ccc2c(c1)OCO2")
"inactive"
>>> result("Cc1cc(-c2cc(F)cc3c2OC(CNC(=O)CCn2cncn2)C3)ccc1F (stereo not drawn)")
"inactive"
>>> result("Cc1sc(NC(=O)C2=COCCO2)nc1-c1ccc(Cl)cc1")
"inactive"
>>> result("Cc1ccccc1C(=O)/C(C#N)=N/Nc1c(C)n(C)n(-c2ccccc2)c1=O")
"inactive"
>>> result("COC(=O)c1scc(C#N)c1N/N=C(\\C#N)S(=O)(=O)c1ccc(Cl)cc1")
"inactive"

input: Which activation is listed for CCCN(CC(=O)Nc1ccccc1C)C(=O)C1CCN(S(=O)(=O)c2ccccc2C(F)(F)F)CC1 ?
output: inactive

input: // returns reported activation for input CC(=O)c1sc(NC(=O)c2c(F)cccc2F)nc1C
output: inactive

input: Fill in: activation of CCC(=Cc1ccccc1OC)c1ccncc1 is ___
output: inactive

input: Quick one: activation of COc1cccc(CN(C)C(=O)c2cnn(-c3ncc4c(n3)-c3ccccc3CCC4)c2C)c1 ?
output: inactive

input: Item CCCn1c(CN2CCN(C(=O)c3ccco3)CC2)nc2c1c(=O)n(C)c(=O)n2C has what recorded activation?
output: inactive

input: Entry CCOc1ccccc1NC(=O)COC(=O)c1ccc(S(=O)(=O)N2CCCC2)cc1 : reported activation = ?
output: inactive

input: Looking for the measured activation of O=C(O)c1cc(S(=O)(=O)Nc2cc(Cl)ccc2Oc2ccccc2)ccc1O , can you help?
output: inactive

###

Test system: AS120
assay: qHTS profiling for inhibitors of Plasmodium falciparum proliferation (AID 504749); further: nearly all actives have a fitted effect of over 60% in size
reported conditions: P. falciparum in erythrocytes, SYBR Green DNA, 72 h; series mostly up to 12.8 µM
Records with an inconclusive call do not appear. Calls of active or inactive are those of the source. Calls follow the shape of the dose curve; as a rule, active = well fitted inhibition curve with a large enough effect; inconclusive = small, poorly fitted or top-dose-only effect; inactive = flat fitted curve, though single readings scatter.
readout type: outcome

>>> result("CCOC(=O)C1=CC(OC(CC)CC)C(NC(C)=O)C(N)C1 (stereo not drawn)")
"inactive"
>>> result("CC[C@@H]1OC(=O)[C@H](C)[C@H](O[C@@H]2C[C@](C)(OC)[C@H](O)[C@H](C)O2)[C@H](C)[C@H](O[C@@H]2O[C@@H](C)C[C@@H](N(C)C)[C@@H]2O)[C@](C)(O)C[C@H](C)C(=NOCOCCOC)[C@H](C)[C@H](O)[C@]1(C)O")
"inactive"
>>> result("NCC1CCC(N)C(O[C@@H]2C(O)[C@H](O[C@H]3OC(CO)C(O)C(N)C3O)[C@@H](N)C[C@H]2N)O1 (stereo partly drawn)")
"inactive"

###

Tested on: CP191
assay: qHTS profiling for inhibitors of Plasmodium falciparum proliferation (AID 504749); further: nearly all actives have a fitted effect of over 60% in size
reported conditions: P. falciparum in erythrocytes, SYBR Green DNA, 72 h; series mostly up to 12.8 µM
Records with an inconclusive call do not appear. Calls of active or inactive are those of the source. Calls follow the shape of the dose curve; as a rule, active = well fitted inhibition curve with a large enough effect; inconclusive = small, poorly fitted or top-dose-only effect; inactive = flat fitted curve, though single readings scatter.
Pick one and only one: active, inactive

input: Outcome? NC(=O)c1cc[n+](CC2=C(C(=O)[O-])N3C(=O)[C@@H](NC(=O)Cc4cccs4)[C@@H]3SC2)cc1
output: inactive

input: Kindly provide the recorded test outcome for the following molecule: CCC(C)C(=O)OC1CCC=C2C=CC(C)C(CCC3CC(O)CC(=O)O3)[C@@H]21 (some centres undefined)
output: inactive

input: Dear all, I need the recorded test outcome for CN1CCC[C@@H](CC2c3ccccc3Sc3ccccc32)C1 , thank you.
output: inactive

input: Would you mind telling me which call this test gave COc1ccc(OC)c([C@H](O)CNC(=O)CN)c1 ?
output: inactive

input: How did this test come out for CC(=O)OCC(=O)[C@@]1(O)CC[C@@H]2[C@H]3CCC4=CC(=O)C=C[C@]4(C)[C@]3(F)[C@@H](O)C[C@@]21C ?
output: inactive

input: Given NC(CCC(=O)N[C@@H](CS)C(=O)NCC(=O)O)C(=O)O (some centres undefined) , state the outcome it received in this test.
output: active

input: Could you kindly confirm the outcome this assay logged for O=C(O)[C@@H]1CCCN1 ?
output: inactive

input: Please let me know the test result on file for C=C1c2c(Cl)ccc(O)c2C(O)=C2C(=O)[C@@]3(O)C(O)=C(C(N)=O)C(=O)[C@@H](N(C)C)[C@@H]3[C@@H](O)[C@H]12 .
output: inactive

input: Please share the test call associated with C[C@H](CCC(=O)O)[C@H]1CC[C@@H]2[C@@H]3[C@@H](O)C[C@H]4C[C@@H](O)CC[C@@]4(C)[C@H]3CC[C@@]21C .
output: inactive
